The measurements presented in this section are drawn from the supplement of paper PMC13207355.

- Test system: E28 (patient-derived glioblastoma stem cells of classical subtype);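 also: cell Painting imaging in 384-well plates, CellProfiler features reduced to at least 20 principal components, Euclidean distance versus same-plate DMSO vehicle wells (0.1% v/v), median over six images per well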
- ASSAY_PROCEDURE: phenotypic distance (Euclidean, principal components) from DMSO controls (arbitrary units); higher = stronger morphological change
- CONDITION_DESCRIPTION: 37 nM; exposure time: 72 h
Structures can show the parent of a compound that is named as a salt.
PROPERTY: phenotypic distance
// print number alone

> print(dat)
                                   molecule  result.value
1  COc1ccc2c(c1)CC[C@@H]1[C@@H]2CC[C@]2(C)[C@@H](NCCCCCCN3C(=O)CCC3=O)CC[C@@H]12          0.46
2  N=C(N)NCc1cccc(I)c1 [Iobenguane sulfate]          0.64
3  COc1ccc(C(=O)CC(=O)c2ccc(C(C)(C)C)cc2)cc1         0.613

Consider the record given below.
For CC[C@H]1CN2CCc3cc(OC)c(OC)cc3[C@@H]2C[C@@H]1C[C@H]1NCCc2cc(OC)c(OC)cc21 [Emetine dihydrochloride hydrate] , write its phenotypic distance. 1.13
